All values here come from ChEMBL document CHEMBL3992552.

Below is a list of entries, each paired with its recorded viability at 50 µM value.
Tested on: Huh-7
Assay: Cytotoxicity against human HuH7 cells assessed as cell survival at 50 uM after 48 hrs by Hoechst 33342 staining based assay relative to control
Assay type: functional
Settings: Huh-7, 48 h, read-out: Survival
Please respond with the number in % and leave the unit unwritten.

{"columns": ["COMPOUND", "UNIT_INFO", "QUANTITATIVE_READOUT"],
 "data": [
  ["COc1cc(O)c(C(=O)/C=C/c2ccccc2)c(OC)c1 [FLAVOKAWAIN B]", "%", 10],
  ["COc1cc(OC)c(C(=O)/C=C/c2ccc(C(=O)O)cc2)c(OC)c1", "%", 38],
  ["COc1cc(O)c(C(=O)/C=C/c2ccccc2SC)c(OC)c1", "%", 38],
  ["COc1ccc(/C=C/C(=O)c2c(O)cc(OC)cc2OC)cc1 [FLAVOKAWAIN A]", "%", 50],
  ["COc1cc(OC)c(C(=O)/C=C/c2ccc(F)cc2)c(OC)c1", "%", 8],
  ["COc1cc(O)c(C(=O)/C=C/c2ccccc2OC)c(OC)c1", "%", 39],
  ["COc1cc(OC)c(C(=O)/C=C/c2ccccc2)c(OC)c1", "%", 6],
  ["COc1cc(OC)c(C(=O)/C=C/c2ccc(Br)cc2)c(OC)c1", "%", 3],
  ["COc1cccc(/C=C/C(=O)c2c(O)cc(OC)cc2OC)c1", "%", 13],
  ["COc1cccc(/C=C/C(=O)c2c(OC)cc(OC)cc2OC)c1", "%", 3]
]}

Challenge: Give a short answer stating reported viability at 50 µM for "COc1cc(OC)c(C(=O)/C=C/c2ccccc2OC)c(OC)c1" .
Response given: 6

Challenge: Give the measured viability at 50 µM for "COc1cc(O)c(C(=O)/C=C/c2ccc(F)cc2)c(OC)c1"
Response given: 66

Challenge: Please report viability at 50 µM for the following compound: "COc1cc(OC)c(C(=O)/C=C/c2ccc(O)cc2)c(OC)c1"
Response given: 45

====

# Ratio IC50 per entry
Test: Selectivity index, ratio of IC50 for human fibroblasts to IC50 for human MDA-MB-231 cells

Worked examples follow.
{"columns": ["SMILES_STR", "Ratio IC50"],
 "data": [
  ["COc1cc(OC)c(C(=O)/C=C/c2ccc(F)cc2)c(OC)c1", ">4.7"],
  ["COc1cc(OC)c(C(=O)/C=C/c2ccccc2)c(OC)c1", ">3.9"],
  ["COc1cc(OC)c(C(=O)/C=C/c2ccc(Br)cc2)c(OC)c1", ">4.5"]
]}

Next, consider the following molecule.
Challenge: Please indicate Ratio IC50 recorded for "COc1cccc(/C=C/C(=O)c2c(OC)cc(OC)cc2OC)c1"
Response given: >5.7
